Source of measurements: the supplement of paper PMC6755084

B1: minF1; a variant is named by its letters at N, in order (parent)
chain: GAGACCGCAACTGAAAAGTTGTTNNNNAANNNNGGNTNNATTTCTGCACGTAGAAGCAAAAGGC

variants of: B1; assay: fraction ligated after 30 min (ligated reads / total reads); higher = more ligase activity; settings: with F1*subA RNA substrate (template-directed ligation), 42 °C
Metric: fraction ligated
Give bare numbers.

Example variants with recorded fraction ligated:
Biopolymer sequence | fraction ligated
GAGACCGCAACTGAAAAGTTGTAAGAAATGATGGGTTGAATTTCTGCACGTAGAAGCAAAAGGC | 0.00161
GAGACCGCAACTGAAAAGTTGTTATAAAATGTGGGTTGAATTTCTGCACGTAGAAGCAAAAGGC | 0.00221
GAGACCGCAACTGAAAAGTTGTACAGAAATGTGGGTTGAATTTCTGCACGTAGAAGCAAAAGGC | 0.00226
GAGACCGCAACTGAAAAGTTGTTATCAGAAAGGTGGTTGATTTCTGCACGTAGAAGCAAAAGGC | 0.00328
GAGACCGCAACTGAAAAGTTGTTATCAGAATGGTGGGTTATTTCTGCACGTAGAAGCAAAAGGC | 0.00191

Quick request: fraction ligated for each listed item, please.
1. GAGACCGCAACTGAAAAGTTGTTATCAAAATGGGGGTTAATTTCTGCACGTAGAAGCAAAAGGC
2. GAGACCGCAACTGAAAAGTTGTTATAGAAATGGAGGGTTATTTCTGCACGTAGAAGCAAAAGGC
3. GAGACCGCAACTGAAAAGTTGTATGAAATGATGGGTTGAATTTCTGCACGTAGAAGCAAAAGGC
4. GAGACCGCAACTGAAAAGTTGTTATCAGAATGTGGGTTAATTTCTGCACGTAGAAGCAAAAGGC
5. GAGACCGCAACTGAAAAGTTGTATCGAAATGATGGGTTGATTTCTGCACGTAGAAGCAAAAGGC
6. GAGACCGCAACTGAAAAGTTGTTTCAGAAGGATGGGTTGATTTCTGCACGTAGAAGCAAAAGGC
7. GAGACCGCAACTGAAAAGTTGTTATAGAAGGATGGGTTGATTTCTGCACGTAGAAGCAAAAGGC

[0.00273, 0.000508, 0.00202, 0.00287, 0.00459, 0.00637, 0.00618]

Quick request: fraction ligated for each listed item, please.
1. GAGACCGCAACTGAAAAGTTGTTACAGAAATGAGGGTTGATTTCTGCACGTAGAAGCAAAAGGC
2. GAGACCGCAACTGAAAAGTTGTTCAGAAAGGATGGGTTAATTTCTGCACGTAGAAGCAAAAGGC
3. GAGACCGCAACTGAAAAGTTGTATAGAAATGATGGGTTGATTTCTGCACGTAGAAGCAAAAGGC
4. GAGACCGCAACTGAAAAGTTGTAAAAATGGATGGGTTGAATTTCTGCACGTAGAAGCAAAAGGC
5. GAGACCGCAACTGAAAAGTTGTTAAGAAAGGATGGTTGAATTTCTGCACGTAGAAGCAAAAGGC

[0.00387, 0.000794, 0.00386, 0.00631, 0.00146]
